Here the recorded pEC50 is given for each entry.
- subject-of-test: GPR119 (UniProt Q8TDV5, S309L, species not given)
- method: GPR119 signaling, cyclic AMP (cAMP) HTRF assay
- assay-conditions: CHO cells with Gα15 and murine GPR119 or HEK293 Flp-In cells with human GPR119 S309L, read-out: EC50 (agonist activation of GPR119, cAMP)
pEC50: −log10 of the molar value.

Below, each entry is followed by its recorded pEC50 result.
INSERT INTO measurements (structure, subject_of_test, test_result) VALUES
  ('Clc1cnc(N2CCC([C@H]3C[C@H]3CCNc3ccc(-n4cnnn4)cn3)CC2)nc1', 'GPR119 (UniProt Q8TDV5, S309L, species not given)', '> 8.00'),
  ('Clc1cnc(N2CCC([C@H]3C[C@H]3CCNc3ccc(-n4ccnn4)cc3)CC2)nc1', 'GPR119 (UniProt Q8TDV5, S309L, species not given)', '> 8.00'),
  ('CC1(C(=O)Nc2ccc(NCC[C@@H]3C[C@@H]3C3CCN(c4ncc(Cl)cn4)CC3)nc2)CC1', 'GPR119 (UniProt Q8TDV5, S309L, species not given)', '> 8.00'),
  ('CN1C(=O)Cc2cc(NCC[C@@H]3C[C@@H]3C3CCN(c4ncc(Cl)cn4)CC3)ccc21', 'GPR119 (UniProt Q8TDV5, S309L, species not given)', '> 8.00');

Q: # value lookup — system GPR119 (UniProt Q8TDV5, S309L, species not given), readout pEC50, item `O=C1c2ccc(NCC[C@@H]3C[C@@H]3C3CCN(c4ncc(Cl)cn4)CC3)cc2CN1C1CC1`
Ans: > 8.00

Q: Entry to check: `Cc1cc(NCC[C@@H]2C[C@@H]2C2CCN(c3ncc(Cl)cn3)CC2)cnc1NC(=O)C1(C)CC1`
Ans: > 8.00

Q: Next: `CC(=O)Nc1cnc(NCC[C@@H]2C[C@@H]2C2CCN(c3ncc(Cl)cn3)CC2)cc1C`
Ans: 7.30 to 8.00

Q: How about `CN1Cc2cc(NCC[C@@H]3C[C@@H]3C3CCN(c4ncc(Cl)cn4)CC3)ccc2C1=O` ?
Ans: 7.30 to 8.00

###

- subject-of-test: GPR119 (UniProt Q8TDV5, S309L, species not given)
- method: GPR119 signaling, cyclic AMP (cAMP) HTRF assay
- assay-conditions: CHO cells with Gα15 and murine GPR119 or HEK293 Flp-In cells with human GPR119 S309L, read-out: EC50 (agonist activation of GPR119, cAMP)
readout-type: EC50

INSERT INTO results (molecule, subject_of_test, readout_type, test_result) VALUES
  ('CC(C)(C)C(=O)Nc1ncc(NCC[C@@H]2C[C@@H]2C2CCN(c3ncc(Cl)cn3)CC2)cc1Cl [Ex 32]', 'GPR119 (UniProt Q8TDV5, S309L, species not given)', 'EC50', '< 10 nM'),
  ('CC(=O)Nc1ccc(NCC[C@@H]2C[C@@H]2C2CCN(c3ncc(Cl)cn3)CC2)nc1 [Ex 35]', 'GPR119 (UniProt Q8TDV5, S309L, species not given)', 'EC50', '10 to 50 nM'),
  ('Cc1nc(C#N)cc(NCC[C@@H]2C[C@@H]2C2CCN(c3ncc(Cl)cn3)CC2)n1 (racemic) [Ex 4]', 'GPR119 (UniProt Q8TDV5, S309L, species not given)', 'EC50', '< 10 nM');

Q: Short answer please: EC50, GPR119 (UniProt Q8TDV5, S309L, species not given), entry Cc1nc(C#N)cc(NCC[C@H]2C[C@@H]2C2CCN(c3ncc(Cl)cn3)CC2)n1 (relative stereo) [Ex 61]
Ans: < 10 nM

Q: Param item: CN(CC[C@@H]1C[C@@H]1C1CCN(c2ncc(Cl)cn2)CC1)c1ccc(S(C)(=O)=O)cc1 [Ex 9]
Ans: 50 to 200 nM

Q: Follow-up entry: CC(=O)Nc1ccc(NCC[C@@H]2C[C@@H]2C2CCN(c3ncc(Cl)cn3)CC2)cn1 [Ex 55]
Ans: < 10 nM

Q: Now the molecule O=C(Cc1ccc(NCC[C@@H]2C[C@@H]2C2CCN(c3ncc(Cl)cn3)CC2)cc1)NC1CC1 [Ex 43]
Ans: 10 to 50 nM

Q: Okay, and Clc1cnc(N2CCC(C3CC3CCNc3ccc(-n4cncn4)nc3)CC2)nc1 (single isomer, unassigned) [Ex 59] ?
Ans: 10 to 50 nM

Q: Do the same for Clc1cnc(N2CCC([C@H]3C[C@H]3CCNc3cnc(-n4cncn4)nc3)CC2)nc1 [Ex 16] please
Ans: 10 to 50 nM

The origin of these recorded values is patent US8552022B2.
